Species on record: Rattus norvegicus
Assay: Compound was tested in vitro for its ability to stimulate dispersed rat pancreatic acini to secrete amylase into the medium using CCK-8 as an agonist control
Format: functional
Listed below: EC50 values for each entry.
reported metric: EC50 (nM)

# molecule, reported value
rows = [
    ("CC(C)N(C(=O)CN1C(=O)C(NC(=O)Nc2cccc(C(=O)c3ccccc3)c2)C(=O)N(c2ccccc2)c2ccccc21)c1ccccc1 (stereo unspecified)", 730),
    ("COc1ccc(N(C(=O)CN2C(=O)C(NC(=O)Nc3cccc(C(=O)c4ccccc4)c3)C(=O)N(c3ccccc3)c3ccccc32)C(C)C)cc1 (stereo unspecified)", 460),
    ("CSCC[C@H](NC(=O)[C@H](Cc1ccc(OS(=O)(=O)O)cc1)NC(=O)[C@@H](N)CC(=O)O)C(=O)NCC(=O)N[C@@H](Cc1c[nH]c2ccccc12)C(=O)N[C@@H](CCSC)C(=O)N[C@@H](CC(=O)O)C(=O)N[C@@H](Cc1ccccc1)C(N)=O [SINCALIDE]", 0.014),
    ("COc1ccc(N(C(=O)CN2C(=O)C(NC(=O)Nc3cccc(C4(C(F)(F)F)N=N4)c3)C(=O)N(c3ccccc3)c3ccccc32)C(C)C)cc1 (stereo unspecified)", 600),
    ("CC(C)N(C(=O)CN1C(=O)C(NC(=O)Nc2cccc(C3(C(F)(F)F)N=N3)c2)C(=O)N(c2ccccc2)c2ccccc21)c1ccccc1 (stereo unspecified)", 930),
    ("CC(C)N(C(=O)CN1C(=O)C(NC(=O)Nc2ccccc2)C(=O)N(c2ccccc2)c2ccccc21)c1ccccc1 (stereo unspecified)", 40),
]

* * *

The following compounds each carry a recorded IC50 for Cholecystokinin receptor type A (Rattus norvegicus).

# compound, unit of measurement, IC50
rows = [
    ("COc1ccc(N(C(=O)CN2C(=O)C(NC(=O)Nc3cccc(C4(C(F)(F)F)N=N4)c3)C(=O)N(c3ccccc3)c3ccccc32)C(C)C)cc1 (stereo not drawn)", "nM", 440),
    ("CN(C(=O)CN1C(=O)C(NC(=O)Nc2cccc(C3(C(F)(F)F)N=N3)c2)C(=O)N(c2ccccc2)c2ccccc21)c1ccccc1 (stereo not drawn)", "nM", 310),
    ("COc1ccc(N(C)C(=O)CN2C(=O)C(NC(=O)Nc3cccc(C4(C(F)(F)F)N=N4)c3)C(=O)N(c3ccccc3)c3ccccc32)cc1 (stereo not drawn)", "nM", 410),
]

Source listed as ChEMBL document CHEMBL1131353.
